Test system: MS2 coat protein
Protocol Notes: apparent KD of MS2 coat protein; designed switch direction (-1 OFF switch, 1 ON switch): -1; higher = weaker reporter binding
Condition Set: input ligand: none
Mark YES for reported apparent KD of MS2 coat protein of 30 nM or greater; mark NO for anything smaller.

| Input Sequence | Subject Of Test | Class |
| --- | --- | --- |
| GCGGACUAGAUCGUGAGAUCUGAGACAUGAGGAUCACCCAUGUAGGAUAUCGAUUCGAAACGAAUCGAGAAGGGCAUAGUCCGC [JL denovo 8] (Eterna round: R96, puzzle: Exclusion NG 3) | MS2 coat protein | NO |
| UUUUGGCAUGUAGGAUAUGGGUCCGAUUGGGAUUUAGAAGGACAUGAGGAUCACCCAUGUGCCCUUACUUGGUCUUUUUUUUUU [EXclNG1-LROPPY19] (Eterna round: R96, puzzle: Exclusion NG 1) | MS2 coat protein | YES |
| GCAUGCGACUGAGGAUAUGUAGUGACCUCAGUCGAGACAUGAGGAUCACCCAUGUACAGCACGUGACAGAAGGCAGCACAUGAU [Eternabot solution 14] (Eterna round: R96, puzzle: Exclusion NG 2) | MS2 coat protein | YES |
| UAGAUGGGAGGAUAUACAUAGAUACAGAUUCAUGUAGUGCUACAUGAGGAUCACCCAUGUAGAAGGCCCGUCUU [JL-ex2-2.18 Mayanne mod] (Eterna round: R96, puzzle: Exclusion 2) | MS2 coat protein | YES |
| GGAUCGAAAGUGAGGAUAUACCUAUGGAUACAUAGGUAGAAGGCACAUGAGGAUCACCCAUGUUCCUACGGUCC [Eli bmx4 4.10] (Eterna round: R97, puzzle: Brourd's mod of Exclusion 4) | MS2 coat protein | NO |
| AAAACGGACCGAGGAUAUACAUGAUAUCUUUACGUAGAAGGCGGACCGGCGACUUGAGGAUCACCCAAGUGUCCUCUUUUGCGG [Mutated MS2 EX1.26] (Eterna round: R96, puzzle: Exclusion NG 1) | MS2 coat protein | YES |
| AGCGAAUAGCUAGGAUAUGAGAAUAGAUAGAGCUCAGAAGGAGCACAUGAGGAUCACCCAUGUGAAGUCUUGAGGCUGCGUGGU [Prohibition 17 - Jieux - Exclusion NG 1] (Eterna round: R96, puzzle: Exclusion NG 1) | MS2 coat protein | NO |
| UGAUGUAGAGGAUAUUGUAUGGCUCACAUGAGGAUCACCCAUGUAGGAUCACCUAGAGCCCGAGAAGGCUAGAGGU [Eternabot (L2) Solution 4] (Eterna round: R97, puzzle: Exclusion 5) | MS2 coat protein | YES |

* * *

Quick reference for apparent KD of MS2 coat protein among some sequences
Tested on: MS2 coat protein
Protocol Notes: apparent KD of MS2 coat protein; designed switch direction (-1 OFF switch, 1 ON switch): 1; higher = weaker reporter binding
Condition Set: input ligand: microRNA oligo, concentration not stated

| Input Sequence | Subject Of Test | apparent KD of MS2 coat protein, nM |
| --- | --- | --- |
| GAGUCAGAUCGAGGAUAUUUGUUAUGACGAUCCCACAUGAGGAUCACCCAUGUCCACGAUCCUCCAAAGAAGGUGAGGCUGGCG [Eternabot solution 32] (Eterna round: R96, puzzle: Same State NG 2) | MS2 coat protein | 39.6 |
| ACAUGAGAUGGAGGAUAUUUUGUACCUACAUGUGACAUGAGGAUCACCCAUGUGGUAAGUAUGAGAAAGAAGGCCAAGAUAUGU [Equivalence 17 - Jieux - Same State NG 2] (Eterna round: R96, puzzle: Same State NG 2) | MS2 coat protein | 18.4 |
| GCUAGAAUUAAAGCCAACAUGAGGAUCACCCAUGUAUGUUGGUAGGAUAUCGUUUGCAAAGCAAACGAGAAGGGCUAAACUAGC [Mat - Same State NG 3 - JL Mod - D16] (Eterna round: R96, puzzle: Same State NG 3) | MS2 coat protein | 80.2 |
| AAGCAUGAAAACAUGCAUAAAAAGUUUGUACAUGAGGAUCACCCAUGUAUGUGCAAGCUUUUUGCUCGUCUUGAAAA [JL SD Zipper 5] (Eterna round: R96, puzzle: Sensor for hsa-mir-208a) | MS2 coat protein | 17.4 |
| UGGCUCAGAGCAGGAUAUAUGUAAUAACAUGAGGAUCACCCAUGUGUCGAGCUUCGGCUCGACACAUAGAAGGGCUCUGAGCCA [SSNG2/2-B2] (Eterna round: R96, puzzle: Same State NG 2) | MS2 coat protein | 29.2 |
| UUAAAGAAUUAAGGAUAUUGAAUACAUAUGUUUAACAUGAGGAUCACCCAUGUGGGUUGCGGUAUCGAGAAGGUAAAAUAAUAG [Mat - Same State NG 2 - JL mod - D5] (Eterna round: R96, puzzle: Same State NG 2) | MS2 coat protein | 106 |
| UAAUUAAGUCAAGGAUAUCACGUCGAAUAGACGUGAGAAGGUGAUUAAUACAUGAGGAUCACCCAUGUAAUACAUGAAUAAUUA [SSNG1/11-B1] (Eterna round: R96, puzzle: Same State NG 1) | MS2 coat protein | 61.6 |
| UGUUUGUUGUGAGGAUAUACAUACACCUUACAUGAGGAUCACCCAUGUUGUAAUUUUGAUAGUUAGUAGAAGGCACUUGGUUAU [JR_SSNG2_Sub045] (Eterna round: R96, puzzle: Same State NG 2) | MS2 coat protein | 64.3 |
| GUUACAUGAGGAUCACCCAUGUGUGUGUGGGAGUGAGUGGCUUAGGAUAUCUAUGAUUUAAGUUAAGAGAAGGAAGAUUGUUGU [SS-NG3-LRO03] (Eterna round: R96, puzzle: Same State NG 3) | MS2 coat protein | 196 |

* * *

System: MS2 coat protein
Protocol Notes: apparent KD of MS2 coat protein; designed switch direction (-1 OFF switch, 1 ON switch): -1; higher = weaker reporter binding
Condition Set: Eterna round: R95; input ligand: microRNA oligo, concentration not stated
Attribute Measured: apparent KD of MS2 coat protein (nM)

| Input Sequence | Quantity Unit | Measured Value |
| --- | --- | --- |
| UGCAUGCUAGGAUAUACGAAACAUUAGGGUUCUUCGUAUGAACAUGAGGAUCACCCAUGUAGAAGGAGCGUGCU [Mod9 of JL-ex2-2.15 mat747 mod] (puzzle: Exclusion 2) | nM | 31.1 |
| CUUUUGUGAGGAUAUUAGUAGUAAAAAAAUAAAAUUACUACUGAGAAGGCACAUGAGGAUCACCCAUGUUUCUC [salish99_ex4_r3_037] (puzzle: Exclusion 4) | nM | 29.2 |
| UCUUAACAUGAGGAUCACCCAUGUGAGGAUAUGAUGCAGCAGUGGUCUACGCUGUGCAUCAGAAGGUACAUGGG (puzzle: Exclusion 1) | nM | 26.8 |

* * *

Tested on: MS2 coat protein
Protocol Notes: apparent KD of MS2 coat protein; designed switch direction (-1 OFF switch, 1 ON switch): 1; higher = weaker reporter binding
Condition Set: input ligand: none
apparent KD of MS2 coat protein values, listed per item

| Input Sequence | Subject Of Test | Quantity Unit | apparent KD of MS2 coat protein |
| --- | --- | --- | --- |
| AUAGUUGCCGAAGGAUAUGAUGAGGAUCACCCAUCAGAAGGUCGGCUAUUGGGUGGAUAUGAGGAUCACCCGUGUUCUUUGGUC (Eterna round: R96, puzzle: Same State NG 1) | MS2 coat protein | nM | 22.9 |
| UGGCUGGUGCUAGGAUAUACAUGAGGAAUCCUCGUAGAAGGAGCACGACAUGAGGAUCACCCAUGUAGCCGUCCGUAGACGGCU [salish99_SSNG1_r04_007] (Eterna round: R96, puzzle: Same State NG 1) | MS2 coat protein | nM | 112 |
| GAGUUACAUGAGGAUCACCCAUGUUGUUUUGGAUAAGGAUAUAUGGUAGGAAGAGGAAUGAUAGAAGGUAUUAGGG [JR_SS1_Sub063] (Eterna round: R96, puzzle: Same State 1) | MS2 coat protein | nM | 35.3 |
| GAGUGGUGGAGAGGAUAUACAUUGUUAUUCACUGUAGAAGGUUCUAACAUGAGGAUCACCCAUGUAGGACUAUUCCUGAGAGUU [Parity 55 - Jieux - Same State NG 1] (Eterna round: R96, puzzle: Same State NG 1) | MS2 coat protein | nM | 14.2 |
| CCGAUUUAUGGAGGAUAUGGAGCCUUAUUGGCUCCAGAAGGUCAAUAACAUGAGGAUCACCCAUGUACGGCGGUCAAUAGACCG [Eli NG1ss - 70] (Eterna round: R96, puzzle: Same State NG 1) | MS2 coat protein | nM | 34.6 |
| ACAUGAGACGUAGGAUAUAUUGUACCUACAUGUGACAUGAGGAUCACCCAUGUGGUAAGUAUGACAUAGAAGGACGAGAUAUGU [Equivalance 94 - Jieux - Same State NG 2] (Eterna round: R96, puzzle: Same State NG 2) | MS2 coat protein | nM | 64.3 |
| UGGCUCAGACGAGGAUAUGAUCAUGGCGCUUCGGCGCAUACAUGAGGAUCACCCAUGUAGGGUGAUCAGAAGGUGUCUGAGCCA [SSNG2/8-B2] (Eterna round: R96, puzzle: Same State NG 2) | MS2 coat protein | nM | 1000 |
| GGUAAGAACUAAGGAUAUUGAAUACAUAUGUUUAACAUGAGGAUCACCCAUGUGGGUUGCGGUGUCGAGAAGGUAGAAUAAUAG [Mat - same State NG 2 - JL mod - D102] (Eterna round: R96, puzzle: Same State NG 2) | MS2 coat protein | nM | 193 |
| GUACAUAUCAGAGGAUAUCACGUCGAAUAGACGUGAGAAGGCUGAUCACACAUGAAUAUUAAUACAUGAGGAUCACCCAUGUAC [SSNG1/13-A1] (Eterna round: R96, puzzle: Same State NG 1) | MS2 coat protein | nM | 31.2 |
